The origin of these recorded values is the Human Domainome abundance scans (Beltran et al. 2025).

B1: Transcription intermediary factor 1-beta, residues 620 to 671; numbered along this chain, Q13263 (parent)
chain: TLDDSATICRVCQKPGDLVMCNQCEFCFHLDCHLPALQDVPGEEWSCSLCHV

Variants of: B1
Assay Info: abundance fitness (aPCA) (normalised: wild type 0, dead -1); higher = more abundant; growth selection in yeast, the domain comes from the species named
Assay Context: Homo sapiens
Property Measured: abundance fitness
No unit in the answer, only the number.

Below: 2 variants and their reported abundance fitness.
>  <Variant Id>
H29V

>  <Reported Result>
-0.952

$$$$
>  <Variant Id>
M20D

>  <Reported Result>
-0.574

$$$$

Entry under test: V11K . Its abundance fitness was -0.162

Noted for F28S : its abundance fitness reads -0.424

Per the records, this variant ( H29R ) has abundance fitness equal to -0.749

So for F26L , the logged abundance fitness turned out to be -0.328

Entry S46M , abundance fitness reported as 0.082

Lab note: measured abundance fitness of F28D was -0.554

// abundance fitness lookup, variant = R10Q , result: -0.296

// abundance fitness lookup, variant = F26M , result: -0.108

abundance fitness measured on V19W = 0

The reported abundance fitness of the variant K14L was -0.513

Recorded abundance fitness (variant S48A ): -0.112

Field abundance fitness (entry H29I ) reads -1.12

Measured abundance fitness, C24W : -1.04

Measured abundance fitness, D39M : -0.24
